- System: Platelet
- experiment_summary: Inhibition of ADP-induced platelet aggregation in human platelet rich plasma
- Type: functional
Could you please report measured pIC50 for the items listed next?
Worth noting: pIC50 values are minus log10 of concentrations stated in mol/L.

Query (compound): O=C(Nc1cccc(OCc2ccc(-c3ccc(C(F)(F)F)cc3)cc2)c1)C1CCNCC1 ; field requested: pIC50
4.18

Next compound up: N=C(N)N1CCC(C(=O)Nc2cccc(OCc3ccc(F)cc3)c2)CC1
3.11

Record: O=C(Nc1cccc(OCc2ccc(-c3ccc(F)cc3)cc2)c1)C1CCNCC1
4.46

For O=C(Nc1cccc(OCc2ccc(-c3ccccc3)cc2)c1)C1CCCNC1 (stereo not drawn) then?
3.82

Similarly, N=C(N)N1CCC(C(=O)Nc2cccc(OCc3ccc(-c4ccccc4)cc3)c2)CC1 ?
3.40

Now give it for O=C(Nc1cccc(OCc2ccc(-c3ccccc3)cc2)c1)C1CCNCC1 too.
3.95

Then what about the compound O=C(Nc1cccc(OCc2ccc(-c3ccccc3F)cc2)c1)C1CCNCC1 ?
4.20

Input O=C(Nc1ccc(OCc2ccc(F)cc2)cc1)C1CCNCC1
3.92

How about this compound: O=C(Nc1cccc(OCc2ccc(-c3cccc(F)c3)cc2)c1)C1CCNCC1
4.46

Same again, this time with O=C(Nc1cccc(OCc2ccc(F)cc2)c1)C1CCNCC1
4.17

Moving on to COc1ccc(NC(=O)C2CCCNC2)cc1 (stereo not drawn)
3.01

And for O=C(Nc1cccc(OCc2ccc(-c3cc(F)cc(F)c3)cc2)c1)C1CCNCC1 ?
4.56

----------
- target_desc: Coagulation factor X (Homo sapiens)
- Sequence (P00742 41-179 limits assumed): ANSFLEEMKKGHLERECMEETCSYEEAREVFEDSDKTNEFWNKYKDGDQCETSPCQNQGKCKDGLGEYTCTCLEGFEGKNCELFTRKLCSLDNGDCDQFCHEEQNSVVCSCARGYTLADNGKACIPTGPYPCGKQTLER
- Sequence (P00742 235-488 limits assumed): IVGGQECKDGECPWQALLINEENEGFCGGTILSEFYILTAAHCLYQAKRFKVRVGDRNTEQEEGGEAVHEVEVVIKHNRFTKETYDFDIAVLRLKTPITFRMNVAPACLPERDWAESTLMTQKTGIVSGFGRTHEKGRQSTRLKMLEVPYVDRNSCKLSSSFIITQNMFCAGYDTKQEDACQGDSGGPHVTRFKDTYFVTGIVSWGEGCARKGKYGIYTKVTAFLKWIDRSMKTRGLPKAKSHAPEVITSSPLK
- experiment_summary: Inhibition of human factor 10a by amydolitic assay
What Ki was measured for each of the following?

Reported Ki, molecule O=C(Nc1cccc(OCc2ccc(-c3c(F)cc(F)cc3F)cc2)c1)C1CCNCC1 : ____
9.47 µM

Okay, and O=C(Nc1cccc(OCc2ccc(-c3ccc(C(F)(F)F)cc3)cc2)c1)C1CCNCC1 ?
0.057 µM

// repeat for O=C(Nc1cccc(OCc2ccc(-c3ccc(F)cc3)cc2)c1)C1CCNCC1 and report
3.87 µM

# iterate: N=C(N)N1CCC(C(=O)Nc2cccc(OCc3ccc(F)cc3)c2)CC1
33.8 µM
